experiment: growth inhibition, single agent or in combination, cell-based, chromothripsis tumors, cisplatin or BGB combos (AID 1671449); conditions: LFS_MB_P medulloblastoma cells, measured here: combination with BGB IC40, at 0.05 µM;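 further: cells exposed for 96 hours; 0% = vehicle DMSO and 100% = killing by high DMSO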
MEASUREMENT KIND: inhibition (%)
Entry rule: numbers only, all in %.

query: Check the records and state inhibition for `Cc1ccnc2c1NC(=O)c1cccnc1N2C1CC1`
result: -7.3

query: Check the records and state inhibition for `O=C(O)P(=O)(O)O`
result: -16.3

query: Check the records and state inhibition for `O=c1oc2c(O)c(O)cc3c(=O)oc4c(O)c(O)cc1c4c23`
result: -14

query: Check the records and state inhibition for `CN(C)c1ccc(C(=C2C=CC(=[N+](C)C)C=C2)c2ccc(N(C)C)cc2)cc1`
result: -19.9

query: Check the records and state inhibition for `CCn1cc(C(=O)O)c(=O)c2cc3c(cc21)OCO3`
result: -2.68

query: Check the records and state inhibition for `NC(=O)NO`
result: -4.05

query: Check the records and state inhibition for `Cc1nc2ccc(CN(C)c3ccc(C(=O)N[C@@H](CCC(=O)O)C(=O)O)s3)cc2c(=O)[nH]1`
result: 2.07

query: Check the records and state inhibition for `O=c1c(O)c(-c2ccc(O)c(O)c2)oc2cc(O)cc(O)c12`
result: 25.1

---

assay: modulation of C. elegans fzo-1 (AID 1259413);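 further: fzo-1 mutant C. elegans worms in liquid wells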; settings: C. elegans fzo-1 modulator screen, mean read-out; stronger effect = higher value
Hi there, I'd appreciate the recorded mean signal for every entry that follows.
Number only, please.

query: Check the records and state mean signal for CC(C)NCC(O)COc1ccc(CCOCC2CC2)cc1 (configuration not stated)
result: 281

query: Check the records and state mean signal for `COc1ccc(C(=O)NCc2ccc(OCCN(C)C)cc2)cc1OC`
result: 262

query: Check the records and state mean signal for `CCN1CCC[C@H]1CNC(=O)c1c(O)c(Cl)cc(Cl)c1OC`
result: 227

query: Check the records and state mean signal for `Cc1cnc(NC(=O)C2=C(O)c3ccccc3S(=O)(=O)N2C)s1`
result: 257

query: Check the records and state mean signal for `CN(Cc1cnc2nc(N)nc(N)c2n1)c1ccc(C(=O)N[C@@H](CCC(=O)O)C(=O)O)cc1`
result: 204

query: Check the records and state mean signal for COC(=O)C1=C(C)NC(C)=C(C(=O)OC(C)C)C1c1cccc2nonc12 (configuration not stated)
result: 273

query: Check the records and state mean signal for `CN(C)CC[C@@H](c1ccc(Br)cc1)c1ccccn1`
result: 234

query: Check the records and state mean signal for `c1cnc(N2CCN(Cc3ccc4c(c3)OCO4)CC2)nc1`
result: 255

query: Check the records and state mean signal for `Cc1nc2n(c(=O)c1CCN1CCC(c3noc4cc(F)ccc34)CC1)CCCC2`
result: 241

query: Check the records and state mean signal for `Nc1nc(F)nc2c1ncn2[C@@H]1O[C@H](CO)[C@@H](O)[C@@H]1O`
result: 243

query: Check the records and state mean signal for `Cc1[nH]c(=O)c(C#N)cc1-c1ccncc1`
result: 234

query: Check the records and state mean signal for `CCCc1c(OCCCCc2nn[nH]n2)ccc(C(C)=O)c1O`
result: 231

query: Check the records and state mean signal for `O=C1[C@H]2CCCC[C@H]2C(=O)N1CCCCN1CCN(c2nsc3ccccc23)CC1`
result: 254

query: Check the records and state mean signal for `COCc1c(C(C)C)nc(C(C)C)c(/C=C/[C@@H](O)C[C@@H](O)CC(=O)O)c1-c1ccc(F)cc1`
result: 232

query: Check the records and state mean signal for `CCOC(=O)c1ncn2c1CN(C)C(=O)c1cc(F)ccc1-2`
result: 276

query: Check the records and state mean signal for `O=C1Nc2ccc(Cl)cc2[C@@](C#CC2CC2)(C(F)(F)F)O1`
result: 218

query: Check the records and state mean signal for `O=C(c1ccc(F)cc1)C1CCN(CCn2c(=S)[nH]c3ccccc3c2=O)CC1`
result: 246

query: Check the records and state mean signal for Cc1cccc(C)c1NC(=O)C(C)N (configuration not stated)
result: 270

query: Check the records and state mean signal for CCC1=C(C)CN(C(=O)NCCc2ccc(S(=O)(=O)NC(=O)NC3CCC(C)CC3)cc2)C1=O (configuration not stated)
result: 255

query: Check the records and state mean signal for `C[n+]1ccccc1/C=N/O`
result: 252

query: Check the records and state mean signal for `CCOC(=O)[C@H](CCc1ccccc1)N[C@@H](C)C(=O)N1[C@H](C(=O)O)C[C@@H]2CCC[C@@H]21`
result: 226

query: Check the records and state mean signal for `COc1ccc(CN2CCN(C(c3ccc(F)cc3)c3ccc(F)cc3)CC2)c(OC)c1OC`
result: 204

The measurements presented in this section are drawn from PubChem BioAssay.
